- System: UO-31
- experiment_description: NCI tumour cell line growth inhibition, 48 h
Active and inactive are the calls of the source. No stated cut-off is given here; in the data, active = GI50 up to about 1.1 µM and inactive = higher.
Classes used: active, inactive

compound | tested_target | answer_label
CCCCNC(=NC#N)NCCCC | UO-31 | inactive
CCC1=C(C[C@H]2NCCc3cc(OC)c(OC)cc32)C[C@H]2c3cc(OC)c(OC)cc3CCN2C1 | UO-31 | active
CCOC(=O)C1(C/C=C\CBr)CCCCCCCCCCC1=O (stereo unspecified) | UO-31 | inactive
NCCC1([N+](=O)[O-])C=CN=CC1 (stereo unspecified) | UO-31 | inactive
CC(=O)OC1COC(N2C(=O)C(=O)c3c(C)cc(Cl)nc32)C(OC(C)=O)C1OC(C)=O (stereo unspecified) | UO-31 | inactive
Cc1cc(C)nc(Nc2nc3cc([N+](=O)[O-])ccc3[nH]2)n1 | UO-31 | inactive
Cc1c2c(OCC(O)CN3CCN(c4ccccc4)CC3)nn(C)c(=O)c2c(C)n1-c1ccccc1 (stereo unspecified) | UO-31 | inactive
COC(=O)C1=C(CCC[C@H](C)O[Si](C)(C)C(C)(C)C)NC(=O)N2[C@@H](CCO)CC[C@H]12 | UO-31 | inactive
O=C(/C=N/c1ccccc1[S-])c1ccco1.O=C(/C=N/c1ccccc1[S-])c1ccco1.[Zn+2] | UO-31 | inactive
CC(C)/C=C1\CCC(CN2CCOCC2)C1=O (stereo unspecified) | UO-31 | inactive
C[C@]12CCC(=O)C=C1CC[C@@H]1C2CC[C@]2(C)Nc3[nH]ncc3CC12 (stereo partly specified) | UO-31 | inactive
C/C(CC(=O)Nc1cc(Cl)c(Cl)cc1Cl)=N\NC(N)=O | UO-31 | inactive
COC(=O)c1c(-c2ccccc2)cc2c3cc(-c4ccccc4)c(C(=O)OC)n3c3ccccc3n12 | UO-31 | inactive
CN(CCNC(=O)c1c[nH]c2c1Cc1ccccc1-2)CCNC(=O)c1c[nH]c2c1Cc1ccccc1-2 | UO-31 | inactive
CC(=O)O[C@H]1CC[C@@]2(C)C(=CC[C@@H]3[C@@H]2CC[C@]2(C)c4c(C)n[nH]c4C[C@@H]32)C1 | UO-31 | inactive
Cc1ccc(S(=O)(=O)NC(C(=O)O)C(C)C)cc1 (stereo unspecified) | UO-31 | inactive
